Here, each record is paired with measured hERG current change (%, negative = inhibition) at 1uM data.
target: human ether-à-go-go-related gene (hERG) potassium channel (human, UniProt Q12809); assay: primary screen, population patch clamp on CHO cells stably expressing hERG; higher = less effect of the substance
Sequence (Q12809 whole entry, looked up): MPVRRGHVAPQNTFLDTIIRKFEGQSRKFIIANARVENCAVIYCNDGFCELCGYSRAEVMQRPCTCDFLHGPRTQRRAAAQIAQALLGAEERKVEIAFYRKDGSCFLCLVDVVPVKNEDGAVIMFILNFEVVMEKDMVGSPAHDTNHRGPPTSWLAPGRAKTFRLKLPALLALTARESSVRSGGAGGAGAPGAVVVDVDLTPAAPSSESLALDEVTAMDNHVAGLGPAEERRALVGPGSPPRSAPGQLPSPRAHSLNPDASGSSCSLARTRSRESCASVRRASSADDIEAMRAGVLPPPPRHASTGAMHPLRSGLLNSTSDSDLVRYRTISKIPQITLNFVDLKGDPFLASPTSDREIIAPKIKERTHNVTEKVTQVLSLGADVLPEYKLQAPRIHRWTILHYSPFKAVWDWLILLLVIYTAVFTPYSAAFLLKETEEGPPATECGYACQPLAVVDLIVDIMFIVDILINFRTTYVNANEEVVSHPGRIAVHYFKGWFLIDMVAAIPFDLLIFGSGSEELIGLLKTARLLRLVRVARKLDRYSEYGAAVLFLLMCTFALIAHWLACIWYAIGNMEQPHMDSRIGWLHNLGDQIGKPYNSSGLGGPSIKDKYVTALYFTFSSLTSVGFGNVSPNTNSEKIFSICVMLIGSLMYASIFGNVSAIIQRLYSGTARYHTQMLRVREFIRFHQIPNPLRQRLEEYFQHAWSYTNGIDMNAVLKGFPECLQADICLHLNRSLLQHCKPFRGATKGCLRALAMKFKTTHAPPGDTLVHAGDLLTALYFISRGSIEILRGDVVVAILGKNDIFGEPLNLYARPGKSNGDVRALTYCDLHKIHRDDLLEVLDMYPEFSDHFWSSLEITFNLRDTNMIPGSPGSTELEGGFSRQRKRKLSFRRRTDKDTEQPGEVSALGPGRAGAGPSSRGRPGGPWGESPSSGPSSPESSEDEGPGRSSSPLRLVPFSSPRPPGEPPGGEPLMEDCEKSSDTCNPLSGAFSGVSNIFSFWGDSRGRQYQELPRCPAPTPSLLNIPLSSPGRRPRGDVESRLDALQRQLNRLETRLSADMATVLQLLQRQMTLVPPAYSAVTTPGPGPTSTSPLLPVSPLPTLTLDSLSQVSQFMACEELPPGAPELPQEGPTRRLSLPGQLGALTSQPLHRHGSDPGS
The whole screen tested about 310,000 compounds, of which about 2,200 (0.71%) showed an effect of 50% or more. Effects have a minus sign here. The list comes from a sample in which strong results are over-represented; it also holds close analogues and randomly drawn compounds.
Report the value in % with no unit label.

Check the records and state hERG current change (%, negative = inhibition) at 1uM for COc1cccc(CC2(CO)CCCN(C/C=C/c3ccccc3OC)C2)c1 (centres unmarked)
-32.8

Check the records and state hERG current change (%, negative = inhibition) at 1uM for CCCCCCCN1C(Nc2ccccc2)=NC[C@@H]1Cc1ccccc1
-79.6
